Listed next: entries and their corresponding pEC50.
Target: GLP-1R (Homo sapiens)
Sequence (P43220 24-463): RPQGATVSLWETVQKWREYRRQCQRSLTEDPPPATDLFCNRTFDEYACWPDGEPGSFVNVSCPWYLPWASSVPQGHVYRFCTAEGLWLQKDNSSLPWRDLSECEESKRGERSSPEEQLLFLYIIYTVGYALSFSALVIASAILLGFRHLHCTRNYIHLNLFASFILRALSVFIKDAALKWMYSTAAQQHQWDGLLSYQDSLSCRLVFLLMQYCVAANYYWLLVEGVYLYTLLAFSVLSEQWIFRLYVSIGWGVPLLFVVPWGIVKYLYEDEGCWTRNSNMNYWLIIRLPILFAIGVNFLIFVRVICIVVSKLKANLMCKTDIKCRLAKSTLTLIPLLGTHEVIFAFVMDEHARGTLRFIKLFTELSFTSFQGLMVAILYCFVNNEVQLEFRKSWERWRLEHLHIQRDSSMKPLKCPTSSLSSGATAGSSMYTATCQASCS
Test: EndoC cAMP accumulation assay (HTRF, EndoC-βH1 cells)
Conditions: EndoC-βH1 human pancreatic β cell line
From the text: EndoC cAMP Accumulation Assay A HTRF cAMP assay (cAMP Gs dynamic kit; CisoBio Cat #62AM4PEJ) was used to identify agonists of GLP-1R in a pancreatic insulinoma cell line (EndoC-PH1). […] EndoC-βH1 cells have detectable GLP-1R messenger ribonucleic acid (mRNA) as detected by quantitative polymerase chain reaction (qPCR). […] The detection kit is intended for the direct quantitative determination of cAMP. […]
Formally, pEC50 is defined as -log10 of the concentration c, with c in mol/L.

Look over these answered cases.
• COc1cc(C(=O)O)cc2c1nc(CN1CCN(c3cccc(OCc4ccc(C#N)cc4F)n3)[C@H]3CC[C@@H]31)n2C[C@@H]1CCO1 (single isomer, unassigned) [Example 4a] = 8.26
• COc1cc(C(=O)O)cc2c1nc(CN1CCN(c3cccc(OCc4ccc(Cl)cc4F)n3)[C@H]3CC[C@@H]31)n2C[C@@H]1CCO1 (single isomer, unassigned) [Example 5b] = 8.68
• COc1cc(C(=O)O)cc2c1nc(CN1CCN(c3cccc(OCc4ccc(Cl)cc4F)n3)[C@@H]3COC[C@@H]31)n2C[C@@H]1CCO1 (single isomer, unassigned) [Example 16a] = 8.72
• N#Cc1ccc(COc2cccc(N3CCN(Cc4nc5c(Cl)cc(C(=O)O)cc5n4C[C@@H]4CCO4)[C@H]4CC[C@H]43)n2)c(F)c1 (single isomer, unassigned) [Example 6b] = 7.24

State its pEC50: N#Cc1ccc(COc2cccc(N3CCN(Cc4nc5ccc(C(=O)O)cc5n4C[C@@H]4CCO4)[C@H]4CC[C@H]43)n2)c(F)c1 (single isomer, unassigned) [Example 2a]
8.39
